From: PubChem BioAssay (NCI)

# Tested on: MCF7 breast
# PROTOCOL: NCI-60 one-dose screen, 48 h
# SETTINGS: 10 µM unless noted
Compounds without any hit were thinned out: in the full panel of roughly 83,000, 20% have a hit. The source made the active and inactive calls. How the source made its calls: active means growth percent below 10; inactive means the rest.
Labels: label 1 (active), label 0 (inactive)

| MOLECULE | CATEGORY_LABEL |
| --- | --- |
| Oc1ccc(N=Cc2ccccc2O)cc1 | label 0 |
| COc1ccc(/C=C2\Oc3cc(OCCCCN4CCCC4)ccc3C2=O)cc1 | label 0 |
| O=S(=O)(Nc1ccc(Br)c(Cl)c1)c1ccc(-c2cnc(C3CC3)o2)cc1 | label 0 |
| COc1cc(-c2nc3ccccc3[nH]2)ccc1OCC(=O)N=Nc1c(O)[nH]c2ccc(Cl)cc12 | label 1 |
| CC(=O)O[C@H]1CC[C@]2(C)[C@H]3CC=C4[C@@H]5CC(C)(C)CC[C@]5(C(=O)NCCNCCNCCN)CC[C@@]4(C)[C@]3(C)CC[C@H]2C1(C)C | label 1 |
| O=C(NCCN1CCOCC1)Nc1ccc(-c2cc3c(Nc4ccc(Oc5cccc(C(F)(F)F)c5)c(Cl)c4)ncnc3s2)cc1 | label 1 |
| FC(F)(F)c1nc2c(NCc3ccc(-c4ccccc4)cc3)cccc2[nH]1 | label 0 |
| COc1nc2c(c(=O)n1C)CN(Cc1ccccc1)C=N2 | label 0 |
| O=C1c2ccccc2C(=O)c2c(N=Nc3[nH]c(=S)[nH]c3O)cccc21 | label 0 |
| COc1cccc(-c2nc3sccn3c2-c2ccnc(NCCNS(=O)(=O)c3ccccc3)c2)c1 | label 0 |
| COc1ccc(-c2nc3cc(C(=O)Nc4cc(OC)c(OC)c(OC)c4)ccc3n2C2CCCCC2)cc1 | label 0 |
| Oc1cccc2ccc(N/N=C/c3cc(CN4CCOCC4)c(O)c4ncccc34)nc12 | label 0 |
| COc1ccc(-c2cc(C(=O)N=Nc3c(O)[nH]c4ccc(Br)cc34)no2)cc1 | label 0 |
| CCc1nc(N)nc(N)c1C#CC(C)c1ccc(-c2ccncc2)cc1Cl (stereo not given) | label 0 |
| c1ccc(-c2cc3n4c(-c5ccccc5)nn(-c5ccccc5)c4cnc-3n2)cc1 | label 0 |
| Nc1nc2ccc3[nH]ncc3c2c2c1CCCC2 | label 1 |
| COc1cc(C)c(C2C(C#N)=C(N)Oc3n[nH]c(-c4cccs4)c32)cc1C(C)C (stereo not given) | label 0 |
| CCCCCCN(CCCCCC)CCC(O)c1ccc2ccccc2c1 (stereo not given) | label 0 |
| CCCc1cc(=O)n2c(C(=O)Nc3cccc(C(=O)OCC)c3)c(C(=O)Nc3ccc(F)cc3)sc2n1 | label 0 |
| CCN(CC)CCCCNc1c2ccc(Cl)cc2nc2ccc(OC)cc12 | label 1 |

---

# Tested on: UO-31 renal
# PROTOCOL: NCI-60 one-dose screen, 48 h
# SETTINGS: 10 µM unless noted
Compounds without any hit were thinned out: in the full panel of roughly 83,000, 20% have a hit. The source made the active and inactive calls. Rule for the calls: active = growth percent below 10; inactive = the rest.
Labels: true (1) for active, false (0) for inactive

| MOLECULE_SMILES | CATEGORY_LABEL |
| --- | --- |
| O=C1c2cc3c(cc2-c2c1c1ccc(F)cc1c(=O)n2C[C@H](O)[C@H](O)[C@H](O)CO)OCO3 | true (1) |
| Clc1ccc2c(NCCNc3nc(N4CCOCC4)nc4ccccc34)ccnc2c1 | true (1) |
| CN1CCN(c2nc(NCCCCNc3ccnc4cc(Cl)ccc34)c3ccccc3n2)CC1 | false (0) |
| O=C(C(=O)c1ccc2c(c1)OCO2)c1ccc2c(c1)OCO2 | false (0) |
| Cc1cc(C)c2nc3nc(C)cc(C)c3c(N)c2c1 | true (1) |

---

# System: OVCAR-3 ovarian
# PROTOCOL: NCI-60 one-dose screen, 48 h (100 = growth as untreated, 0 = no growth, -100 = all killed)
# SETTINGS: 10 µM unless noted
Compounds without any hit were thinned out: in the full panel of roughly 83,000, 20% have a hit. The source made the active and inactive calls. The calls were made as follows: active = growth percent below 10; inactive = the rest.

| COMPOUND | growth |
| --- | --- |
| CCCc1cc(=O)n2c(C(=O)Nc3cccc(C(=O)OCC)c3)c(C(=O)Nc3ccc(F)cc3)sc2n1 | -4.26% [30 µM] (active) |
| N#Cc1cnn(-c2nc3c(Cl)cccc3s2)c1N | 98.1% (inactive) |
| C=CCSSc1ncnc2c1ncn2C1OC(CO)C(O)C1O (stereo unspecified) | 29.1% (inactive) |
| c1ccc2[nH]c(-c3ccc(Nc4nc(N5CCCC5)nc5[nH]ncc45)cc3)nc2c1 | -53.1% (active) |
| COc1ccc(CN2c3ccccc3Sc3ccccc32)cc1O | 7.47% (active) |
| COc1ccc(-n2nc(C)c3c(Oc4ccc(NC(=O)Nc5c(Cl)cccc5Cl)cc4)ncnc32)cc1 | 112% (inactive) |
| O=C1/C(=C(/c2ccccc2)N2CCOCC2)Cc2ccccc21 | -60.7% (active) |
| C#CC(F)(F)[C@]1(O)CC[C@H]2[C@@H]3CCC4=CC(=O)CCC4=C3[C@@H](c3ccc(C(C)=O)cc3)C[C@@]21C | 9.4% (active) |
| COc1cc(C=Nc2oc(-c3ccccc3)c(-c3ccccc3)c2C#N)cc(CN2CCCCC2)c1O | 110% (inactive) |
| CN1CCN(c2ccc3nc(-c4ccc(OCCCCN5CCN(CCCCN6C(=O)c7cccc8cccc(c78)C6=O)CC5)cc4)[nH]c3c2)CC1 | 76.1% (inactive) |
| CC1=C(O)C(=O)C(C(C#N)(C#N)C(C#N)C#N)C1 (stereo unspecified) | 94.8% (inactive) |
| Cc1nc2c3c(-c4ccccc4)c(-c4ccccc4)oc3ncn2n1 | 111% (inactive) |
| NC1=C(Cl)C(=O)c2ccc(S(N)(=O)=O)cc2C1=O | -95.5% (active) |
| c1ccc(CCNc2ncnc3[nH]ncc23)cc1 | 108% (inactive) |
| Cc1cc(N2CCCCC2)nc(NC2CCCC(Nc3ccnc4cc(Cl)ccc34)C2)n1 (stereo unspecified) | -69% (active) |
| O=C(NCCN1CCOCC1)Nc1ccc(-c2cc3c(Nc4ccc(Oc5cccc(C(F)(F)F)c5)c(Cl)c4)ncnc3s2)cc1 | 41.1% (inactive) |
| COc1ccc(-c2n[nH]nc2-c2csc3ccccc23)cc1OC | 11.9% (inactive) |
| CNC(=O)c1cc(Oc2ccc(NC(=O)Nc3ccc(Cl)c(OC(F)(F)F)c3)c(F)c2)ccn1 | 39.8% (inactive) |
| COc1ccc(C(=O)COc2cccc(/C=C3\CSc4ccccc4C3=O)c2)cc1 | 64.4% (inactive) |
| COc1cc(-c2nn(-c3ccc(C(=O)O)cc3)cc2C(=O)O)ccc1O | 42.8% (inactive) |
| N#Cc1nnn(-c2ccc(S(N)(=O)=O)cc2)c1NCC(=O)c1ccccc1 | 106% (inactive) |
| CCN(CC)c1ccc(/C=N\NC(=O)/C=C/C=C/c2ccc3c(c2)OCO3)c(O)c1 | 4.95% (active) |
| COc1ccccc1NS(=O)(=O)c1ccc2oc(SC(C)C)nc2c1 | 85.7% (inactive) |
| C[n+]1ccccc1/C=C/c1ccc2cccc(O)c2n1 | 112% (inactive) |
| Cn1c(O)c(N=NC(=O)c2cc(-c3ccccc3)on2)c2ccccc21 | 115% (inactive) |
| COc1cc2c(cc1OC)C(Sc1ccc(SC)cc1)c1c(nc(N)c(C#N)c1N)O2 (stereo unspecified) | -88.7% (active) |
| CCOC(=O)c1sc2nc(-c3cccc(OC)c3)nc(N3CCOCC3)c2c1C | 108% (inactive) |
| Cc1cc(N2CCCCCC2)nc(NC2CCCC(Nc3ccnc4cc(Cl)ccc34)C2)n1 (stereo unspecified) | -78.6% (active) |
| FC(F)(F)c1ccc(-c2cn3nc(-c4c[nH]c5ccc(Br)cc45)sc3n2)cc1 | 107% (inactive) |
| Cc1cc(C)nc(SC2=C(Nc3ccc(O)cc3)C(=O)N(Cc3ccccc3)C2=O)n1 | 80.9% [40 µM] (inactive) |
| CCN(CC)CCCCNc1c2ccc(Cl)cc2nc2ccc(OC)cc12 | -25.8% (active) |
| COc1cc(-c2nc(C(=O)NCC(=O)NO)nn2-c2ccc(Cl)cc2)cc(OC)c1OC | 103% (inactive) |
| COc1ccc(C2CC(c3ccc4ccccc4c3)=NN2/C=C2\SC(=S)N(NC(=O)Cc3ccccc3Nc3c(Cl)cccc3Cl)C2=O)cc1 (stereo unspecified) | 2.15% (active) |
| COc1cc(-c2nn(-c3ccc(Br)cc3)cc2C(=O)O)ccc1O | 101% (inactive) |
| Cc1cc(C)c2nc3nc(C)cc(C)c3c(N)c2c1 | 26.5% (inactive) |
| CCNC(=O)Oc1ccc(/C(=C(\C)c2ccc(Cl)cc2)c2ccc(OCCN3CCCCC3)cc2)cc1 | 60.8% (inactive) |
| COc1ccc(N=Nc2nccs2)c(O)c1 | 33.1% (inactive) |
| Oc1ccccc1-c1nnc(CNc2ccc(Cl)cc2)o1 | 26.1% (inactive) |
| O=C(CCN1C(=O)/C(=C/c2ccc(Cl)cc2)SC1=S)NCCCN1CCOCC1 | 105% (inactive) |
| O=C1NC(=S)N[C@H]1CC(=O)n1cnc2ccccc21 | 110% (inactive) |
| COc1ccc(-c2nc3ccc(-c4nc5ccc(N6CCN(c7ccccc7)CC6)cc5[nH]4)cc3[nH]2)cc1OC | -68.3% (active) |
